Origin of the recorded values: patent US6555692B1

system: 5′-AACCAAGTCTTGGTA-3′; assay: Association constants, recognition of 15 base pairs; conditions: Table 7, C3-OH polyamides, match site
Parameter: Ka 5′-AACCAAGTCTTGGTA-3′. Scope: all listed entries.

Example entries begin here.
>  <smiles_notation>
Cn1cc(NC(=O)c2cc(NC(=O)c3cc(NC(=O)CCCNC(=O)c4cc(NC(=O)c5nc(NC(=O)c6nc(NC(=O)CCCCCNC(=O)c7cc(NC(=O)c8cc(NC(=O)c9nccn9C)cn8C)cn7C)cn6C)cn5C)cn4C)cn3C)cn2C)cc1C(=O)NCCCO

>  <observed_result>
3 × 10^7

$$$$
>  <smiles_notation>
Cn1cc(NC(=O)c2cc(NC(=O)c3cc(NC(=O)CCCNC(=O)c4cc(NC(=O)c5nc(NC(=O)c6nc(NC(=O)CCCCNC(=O)c7cc(NC(=O)c8cc(NC(=O)c9nccn9C)cn8C)cn7C)cn6C)cn5C)cn4C)cn3C)cn2C)cc1C(=O)NCCCO

>  <observed_result>
3 × 10^7

$$$$
>  <smiles_notation>
Cn1cc(NC(=O)c2cc(NC(=O)c3cc(NC(=O)CCCNC(=O)c4cc(NC(=O)c5nc(NC(=O)c6nc(NC(=O)CCNC(=O)CCNC(=O)c7cc(NC(=O)c8cc(NC(=O)c9nccn9C)cn8C)cn7C)cn6C)cn5C)cn4C)cn3C)cn2C)cc1C(=O)NCCCO

>  <observed_result>
1 × 10^8

$$$$

Inquiry: Give the measured Ka 5′-AACCAAGTCTTGGTA-3′ of "CC(=O)Nc1cn(C)c(C(=O)Nc2cn(C)c(C(=O)Nc3cc(C(=O)NCCCC(=O)Nc4cc(C(=O)Nc5cc(C(=O)Nc6cc(C(=O)NCCCO)n(C)c6)n(C)c5)n(C)c4)n(C)c3)n2)n1" .
Reply text: 7 × 10^6

* * *

Specificity Edge mismatch listing for selected molecules.
system: 5′-AACCAAGTCTTGGTA-3′; assay: Association constants, recognition of 15 base pairs; conditions: Table 6; match vs 5′-AACCAAGTCTTGCGA-3′
// response body must contain only the number

Take a look at these entries with their results.
>  <smiles_notation>
CN(C)CCCNC(=O)CCNC(=O)c1cc(NC(=O)c2cc(NC(=O)c3nc(NC(=O)CCCCNC(=O)c4cc(NC(=O)c5cc(NC(=O)c6cc(NC(=O)CCCNC(=O)c7cc(NC(=O)c8nc(NC(=O)c9nccn9C)cn8C)cn7C)cn6C)cn5C)cn4C)cn3C)cn2C)cn1C

>  <assay_system>
5′-AACCAAGTCTTGGTA-3′

>  <Specificity Edge mismatch>
2

$$$$
>  <smiles_notation>
CN(C)CCCNC(=O)CCNC(=O)c1cc(NC(=O)c2cc(NC(=O)c3nc(NC(=O)CCCCCCNC(=O)c4cc(NC(=O)c5cc(NC(=O)c6cc(NC(=O)CCCNC(=O)c7cc(NC(=O)c8nc(NC(=O)c9nccn9C)cn8C)cn7C)cn6C)cn5C)cn4C)cn3C)cn2C)cn1C

>  <assay_system>
5′-AACCAAGTCTTGGTA-3′

>  <Specificity Edge mismatch>
1

$$$$
>  <smiles_notation>
CN(C)CCCNC(=O)CCNC(=O)c1cc(NC(=O)c2cc(NC(=O)c3nc(NC(=O)CCCCCNC(=O)c4cc(NC(=O)c5cc(NC(=O)c6cc(NC(=O)CCCNC(=O)c7cc(NC(=O)c8nc(NC(=O)c9nccn9C)cn8C)cn7C)cn6C)cn5C)cn4C)cn3C)cn2C)cn1C

>  <assay_system>
5′-AACCAAGTCTTGGTA-3′

>  <Specificity Edge mismatch>
2

$$$$

// next entry
Inquiry: Request: Specificity Edge mismatch, test system 5′-AACCAAGTCTTGGTA-3′, entry "CN(C)CCCNC(=O)CCNC(=O)c1cc(NC(=O)c2cc(NC(=O)c3nc(NC(=O)CCNC(=O)CCNC(=O)c4cc(NC(=O)c5cc(NC(=O)c6cc(NC(=O)CCCNC(=O)c7cc(NC(=O)c8nc(NC(=O)c9nccn9C)cn8C)cn7C)cn6C)cn5C)cn4C)cn3C)cn2C)cn1C"
Reply text: 1
